Assay: plasmodial surface anion channel blockers, osmotic lysis – cell-based, P. falciparum Indochina, OD700, 18 h, primary screen (AID 1157)
Conditions: P. falciparum Indochina infected erythrocytes, osmotic lysis OD700, 18 h; higher = more signal, called active from +8 up or from −8 down
MEASURED PROPERTY: z-score
// print number alone

Answered cases to consult:
chemical_structure=COCCOC(=O)N1C(=O)[C@@]2(c3cc(C#CCCO)ccc31)[C@H](C(=O)Nc1nc3ccccc3s1)[C@H]1C(=O)O[C@H](c3ccccc3)[C@H](c3ccccc3)N1[C@@H]2c1ccc(O)cc1 measured_property=z-score assay_value=0.417
chemical_structure=C=C(COC)/C(=C/C[C@H](OC(=O)c1ccncc1)c1ccccc1OCCO)c1cc(C(=O)OC)ccc1OC measured_property=z-score assay_value=0.773

Shifting focus to the compound that follows.
// recorded z-score for COC(=O)C(CC#Cc1ccc2c(c1)[C@]1(C(=O)N2)[C@H](c2ccc(O)cc2)N2[C@H](c3ccccc3)[C@H](c3ccccc3)OC(=O)[C@H]2[C@@H]1C(=O)NC[C@H](O)c1ccccc1)C(=O)OC : -0.154

These measurements were taken from PubChem BioAssay.
